# target.desc: purified human PRX3 (Homo sapiens, UniProt P30048)
# Construct: made in house
# Sequence (P30048 62-256): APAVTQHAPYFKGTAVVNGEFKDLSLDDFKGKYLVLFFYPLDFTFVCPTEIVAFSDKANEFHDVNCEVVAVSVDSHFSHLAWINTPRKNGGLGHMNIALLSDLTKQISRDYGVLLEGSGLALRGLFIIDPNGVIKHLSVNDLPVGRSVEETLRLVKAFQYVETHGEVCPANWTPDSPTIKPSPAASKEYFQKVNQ
# assay.remarks: Biochemical PRX3 Inhibition Assay (non-reducible crosslink by SDS PAGE + single adduct by MALDI-TOF MS)
# condition: 100 μM PRX3 with TRX2/thioredoxin reductase/NADPH system and hydrogen peroxide, 1-2 hr at 37° C.
# Method: The compounds described herein generally react with two essential cysteine residues in the mitochondrial peroxidase PRX3, leading to the formation of a non-reducible, covalent crosslink of two PRX3 monomers. This crosslink inactivates PRX3. […] To measure covalent adduct formation on a single PRX3 monomer, each reaction was exchanged into a mass spectrometry compatible buffer containing 40 mM ammonium citrate, pH 8.3 made in HPLC water. […] Spectra were analyzed in FLEXAnalysis Software. […]
value.kind: PRX3 Inhibition (Crosslink + Mono-adduct)

>>> test_result("C=C(NC(=O)c1csc(-c2ccc(NC(=O)OC(C)(C)C)nc2)n1)C(=O)NC(=C)C(=O)OC [Compound 2]")
"++ (50-90%)"
>>> test_result("C=C(NC(=O)c1csc(N2CCN(C(=O)COCCOC)CC2)n1)C(=O)NC(=C)C(=O)OC [Compound 47]")
"++ (50-90%)"
>>> test_result("C=C(NC(=O)c1csc(N2CCN(C(=O)C3CCOCC3)CC2)n1)C(=O)NC(=C)C(=O)OC [Compound 59]")
"+++ (>90%)"
>>> test_result("C=C(NC(=O)c1csc(-c2ccc(CNC(=O)CCCCCNC(=O)OC(C)(C)C)cc2)n1)C(=O)NC(=C)C(=O)OC [Compound 44]")
"+++ (>90%)"
